# protocol-description: amyloid nucleation score (Sup35N fusion, yeast selection) (log enrichment); library NNK3; higher = more nucleation; inactive = no reads after selection;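 also: zero at mode of non-aggregating sequences after 7 days selection at 30°C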
property: amyloid nucleation score

substance: VTPVTYQASLTICYSYKALH
property: amyloid nucleation score
result: inactive

substance: AGKKLSRITTWSNTLLDPKS
property: amyloid nucleation score
result: inactive

substance: LNDLCKMPVSLFIHGLCLMT
property: amyloid nucleation score
result: inactive

substance: QNHTVHSARWDNGSTANTTT
property: amyloid nucleation score
result: inactive

substance: LSIDEWRFSSANSTALECHV
property: amyloid nucleation score
result: inactive

substance: ASQFRCDHCMPRLKGETMET
property: amyloid nucleation score
result: inactive

substance: IQYIMTNLGPDYNRFEYM
property: amyloid nucleation score
result: inactive

substance: ISNSYH
property: amyloid nucleation score
result: inactive

----------
# protocol-description: amyloid nucleation score (Sup35N fusion, yeast selection) (log enrichment); library NNK3; higher = more nucleation; inactive = no reads after selection

input-sequence: FVGSLDFNGVSEGFVASHCI
amyloid nucleation score: inactive

input-sequence: INSWIPWWLERKWSWHLASI
amyloid nucleation score: inactive

input-sequence: LMCDWGVY
amyloid nucleation score: -0.175

input-sequence: TFYDNLSDRLFSWS
amyloid nucleation score: inactive

input-sequence: TYLHDLYT
amyloid nucleation score: inactive

input-sequence: SVRTSAYYKFQRTERVSMCM
amyloid nucleation score: inactive

input-sequence: KINKREWRRFTVYSVFSHVS
amyloid nucleation score: 0.435

input-sequence: CQGIMDRRTSKRMPIANMVQ
amyloid nucleation score: inactive

input-sequence: GSALVLCELGSVAKSLSGNL
amyloid nucleation score: inactive

input-sequence: NSMSKVKMLVRSISTIEEVK
amyloid nucleation score: inactive

input-sequence: GTLCTETHGT
amyloid nucleation score: inactive

input-sequence: KYMGAVFYIIHRTEERYF
amyloid nucleation score: 0.874

----------
# protocol-description: amyloid nucleation score (Sup35N fusion, yeast selection) (log enrichment); library NNK3; higher = more nucleation; inactive = no reads after selection
property: amyloid nucleation score

input-sequence: VNTFVFTGFCMYSFVMSWLN
property: amyloid nucleation score
result: 0.525
//
input-sequence: RLVSLSPNLLMYSNVLDYLK
property: amyloid nucleation score
result: inactive
//
input-sequence: ADLPCDVATNLVPLTRSSQM
property: amyloid nucleation score
result: inactive

----------
amyloid nucleation score values by entry
# protocol-description: amyloid nucleation score (Sup35N fusion, yeast selection) (log enrichment); library NNK2; higher = more nucleation; inactive = no reads after selection

substance: LNWFFLL
amyloid nucleation score: 0.937

substance: FSYMWAHTGSFPRRQVIITI
amyloid nucleation score: -0.596

----------
# protocol-description: amyloid nucleation score (Sup35N fusion, yeast selection) (log enrichment); library NNK1; higher = more nucleation; inactive = no reads after selection
rule met means recorded amyloid nucleation score is -0.2 or above; rule not met means it is below -0.2.

input-sequence: STFSLTSRASHKVPQDRYFP
label-class: rule met
//
input-sequence: PTRDCRVNKGSLMWTP
label-class: rule not met
//
input-sequence: MPEILSVRSF
label-class: rule not met
//
input-sequence: SVPRSGKALLLSMMQLGYDS
label-class: rule met
//
input-sequence: DINSYVAYLVYEGLVNGSDE
label-class: rule met
//
input-sequence: SERDRLSLMRRVAM
label-class: rule met

----------
# protocol-description: amyloid nucleation score (Sup35N fusion, yeast selection) (log enrichment); library NNK1; higher = more nucleation; inactive = no reads after selection
amyloid nucleation score values by entry
property: amyloid nucleation score

substance: PCKSCGLKFTRW
result-number: 0.235
--
substance: RVGYIYHYYLDNQG
result-number: -0.175
--
substance: FISNVWPYGESRFEESNPCL
result-number: 0.094
--
substance: RLWSRPSS
result-number: 1.14
--
substance: VWGYVMRS
result-number: 0.299
--
substance: ECGLGRSKEQSNGSWMCLHR
result-number: -0.464
--
substance: YRFSGEGALLASKWLINNCT
result-number: -0.224
--
substance: CDLFDFCISSKCRFKFLGRM
result-number: -0.131
--
substance: SYSYRLQPFIAMLLGSFL
result-number: -1.04
--
substance: RPLALRVQDSPKSFGQSP
result-number: 0.145
--
substance: RFQGGWSRF
result-number: 3.68
--
substance: GYLCLGSCNRSVSLLSSTGS
result-number: 0.407
--
substance: FKVKIVKCLGMFLLTIASLL
result-number: 1.07
--
substance: IDNMGT
result-number: 2.4
--
substance: NPRLCPKDMRGRPQEKRVPQ
result-number: -0.345
--
substance: MYPRSCIHVMCFTVVKASVG
result-number: -1.26
--
substance: GFFYEWRVYCPAWINALWWH
result-number: 0.193
--
substance: FQYTACIN
result-number: 1.08
--
substance: NVRDLSMISLGAEVWGRIAV
result-number: 0.619
--
substance: KWGVCVLTHLGRYWLLLGCG
result-number: -0.145
--
substance: ADANCFRGWSRHHRTITQLR
result-number: 0.296
--
substance: PHQPRILM
result-number: -0.387
--
substance: GNAVYMNYFNVLDWNWSL
result-number: 4.97
--
substance: SGMVLNNQSS
result-number: -0.763
--
substance: QHTFQAMISKSNVSEMSPGT
result-number: -0.174
--
substance: EFRSSVDWNAFMKLLVCTKH
result-number: 0.021
--
substance: SYYYHV
result-number: 1.17
--
substance: SRGVQGMYDDYKDGGLLYLV
result-number: -0.228
--
substance: TGYLERRVGYYRVRFRCERS
result-number: 0.022
--
substance: TNGLCFI
result-number: -0.833
--
substance: MEISLVINWSIIITKVCVCV
result-number: 0.497
--
substance: RFVLKYSSFFMFTIRWCVVV
result-number: -0.027
--
substance: SIPLCTLESQSEKVTWISDQ
result-number: 0.325
--
substance: VHCLLAGRKMNFGLFCINVQ
result-number: -0.025
--
substance: NLRLAWRGQTVCRETHKRPF
result-number: 2.37
--
substance: GRCDWTVLDMVDMIGKVESQ
result-number: 0.273

----------
# protocol-description: amyloid nucleation score (Sup35N fusion, yeast selection) (log enrichment); library NNK2; higher = more nucleation; inactive = no reads after selection

input-sequence: GNSYNVKTYTNLVGIIMDKA
amyloid nucleation score: inactive

input-sequence: DIFIGNSVCGVYRMVNMYSY
amyloid nucleation score: inactive

input-sequence: FGIQGWLFSNSWFLILVFFL
amyloid nucleation score: inactive

----------
amyloid nucleation score values by entry
# protocol-description: amyloid nucleation score (Sup35N fusion, yeast selection) (log enrichment); library NNK1; higher = more nucleation; inactive = no reads after selection

substance: SVDLFSCRRIRLTLLEVFVT
amyloid nucleation score: -0.028

substance: CLRLELDKF
amyloid nucleation score: 3.34

substance: VSVFNAQFIDRRGCR
amyloid nucleation score: 5.16

substance: RVFLMCCVGEMLRMLQLSSD
amyloid nucleation score: 6.46

substance: MHWLRGVRS
amyloid nucleation score: 0.082

substance: YSAITNGSFQVLV
amyloid nucleation score: 0.17

substance: RCYKSLVGMNTHKSAAVVER
amyloid nucleation score: 0.011

substance: VNEIRT
amyloid nucleation score: -0.153

substance: SDYFYSGKGFFLAMGLSMSR
amyloid nucleation score: -1.5

substance: TAKRLAT
amyloid nucleation score: 0.21

substance: SRGFKPMPGQYFCKG
amyloid nucleation score: 0.165

substance: LRPKWVAGDVLFQIYPWTRR
amyloid nucleation score: 0.629

substance: CGFSDNGTCKND
amyloid nucleation score: -0.059

substance: RTNVWVAFVDSRSHGQFCQK
amyloid nucleation score: 3.68

substance: FVEVVRTLEQI
amyloid nucleation score: -0.485

substance: TFGVVEFSRNRGMSLCETLN
amyloid nucleation score: 0.386

substance: SLTFVPTLFTCMDLMHC
amyloid nucleation score: 7.42

substance: GLAGTLDPLTASDLLSRIGV
amyloid nucleation score: 0.182

substance: CRTVAHFRP
amyloid nucleation score: 0.481

substance: TYYVRCLGLLGLNPTFRSPR
amyloid nucleation score: 0.365

substance: NYHFDWLRFFRHQREVGEVA
amyloid nucleation score: 0.4

substance: VNSTMVPRVLME
amyloid nucleation score: 0.935

substance: LLTDRRDSSSRNDTLVRKGM
amyloid nucleation score: 2.23

substance: RATQLF
amyloid nucleation score: 1.81

----------
# protocol-description: amyloid nucleation score (Sup35N fusion, yeast selection) (log enrichment); library NNK3; higher = more nucleation; inactive = no reads after selection
property: amyloid nucleation score

substance: SFNSQSSRRVDNQRWVNLNF
result: 0.886
--
substance: KNVTFTCHWTSKSLNMYYEE
result: 0.512
--
substance: TKIEVNS
result: inactive
--
substance: NLLDNRIFYHMD
result: inactive
--
substance: NIFDFVFDEFRLAQPMYKCC
result: inactive
--
substance: FFIYVQTGPS
result: -0.922
--
substance: IFINRKE
result: -0.431
--
substance: RFEFDQVFMF
result: 1.32
--
substance: EVSWVSRNVWFNRTCFCVQV
result: 0.042
--
substance: WTMSKLNGRCTSCPHLARLS
result: inactive
--
substance: LKRYDVQSSTGVNLTYGTYT
result: inactive
--
substance: QSFLATSFSFYFLSPGYVNY
result: inactive
--
substance: SSSNTRFVGAERCVGSWCGS
result: inactive
--
substance: VTKARSHYTVSVLMDEKCMG
result: inactive
--
substance: LNHGVCIFYDQFANLELPPR
result: 2.09
--
substance: CSSGYIQKMVSRYMSYGYHF
result: inactive
--
substance: WSIRMW
result: inactive
--
substance: FDFRFYQVVVGGCRIETVIV
result: inactive
--
substance: ICYIPY
result: inactive
--
substance: AWFTEVYFKPSFRKR
result: inactive
--
substance: FLLTYVNIRGMQP
result: 1.49
--
substance: IENRFVSFLYL
result: 1.88
--
substance: YGCKANSPLL
result: inactive
--
substance: SLGISKSG
result: inactive
--
substance: IITPELYGKLRLHH
result: inactive
--
substance: WQPDTVKGEVLLRVGTMLSV
result: inactive
--
substance: IERLDNSIVNVMWILSGCKA
result: inactive
--
substance: LLSDICFCYYAREIRNSGCS
result: inactive
--
substance: WLNYCNCV
result: 1.91
--
substance: IICLSGGDFRRYELDHSN
result: inactive
--
substance: RVARMFGEY
result: inactive
--
substance: YYFTFFIKCMRNIMVNSMAA
result: inactive
--
substance: DGGCSKIVRQTLWLNPLGNS
result: inactive
--
substance: FILYMCKCS
result: inactive
--
substance: SYDGWCVTYFDV
result: inactive
--
substance: QNVFWIVSGTSEWGSALVFG
result: inactive
--
substance: LKKVCDECRFSESPLVPEVA
result: 1.06
--
substance: FNFTVSRVPISVMVLQKRRK
result: 1.18
--
substance: IHKCYT
result: inactive
--
substance: WELMCKALGRGRRCWYKCFL
result: inactive
--
substance: FIIPSSMTHMARKNIVRAW
result: inactive
